Exercise: state measured Kd for each of the binders provided.
- experimental.system: T1, EsCas13d, nuclease-dead (Eubacterium siraeum, UniProt B0MS50, R295A;H300A;R849A;H854A)
- T1 sequence: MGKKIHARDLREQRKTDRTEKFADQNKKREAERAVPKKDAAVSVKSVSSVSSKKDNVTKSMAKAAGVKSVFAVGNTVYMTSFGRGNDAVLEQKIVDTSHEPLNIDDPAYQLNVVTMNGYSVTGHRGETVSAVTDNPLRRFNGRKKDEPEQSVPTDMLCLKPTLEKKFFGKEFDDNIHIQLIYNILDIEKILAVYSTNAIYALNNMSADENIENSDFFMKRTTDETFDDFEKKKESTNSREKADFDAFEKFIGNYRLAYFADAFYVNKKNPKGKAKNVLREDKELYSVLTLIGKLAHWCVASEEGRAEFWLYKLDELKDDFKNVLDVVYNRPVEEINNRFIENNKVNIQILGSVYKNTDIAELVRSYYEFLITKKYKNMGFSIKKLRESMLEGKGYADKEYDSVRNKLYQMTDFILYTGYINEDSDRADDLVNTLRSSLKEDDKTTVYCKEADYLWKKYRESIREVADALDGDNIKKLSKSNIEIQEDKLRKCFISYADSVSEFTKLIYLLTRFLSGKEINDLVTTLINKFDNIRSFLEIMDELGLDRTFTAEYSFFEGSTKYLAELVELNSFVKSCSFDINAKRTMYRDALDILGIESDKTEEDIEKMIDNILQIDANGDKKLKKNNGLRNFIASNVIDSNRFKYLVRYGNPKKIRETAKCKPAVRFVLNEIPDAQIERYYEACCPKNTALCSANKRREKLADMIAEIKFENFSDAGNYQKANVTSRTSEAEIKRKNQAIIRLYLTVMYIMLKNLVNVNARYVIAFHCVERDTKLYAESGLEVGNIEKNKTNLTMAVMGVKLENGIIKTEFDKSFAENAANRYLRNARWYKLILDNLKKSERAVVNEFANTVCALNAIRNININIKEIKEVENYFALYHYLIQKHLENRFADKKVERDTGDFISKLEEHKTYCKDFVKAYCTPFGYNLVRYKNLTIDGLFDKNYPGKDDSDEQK
- test.method.notes: crRNA (strand 1, pre-loaded); Mg2+; 40 mM Tris-HCl pH 7.5, 150 mM NaCl, 6 mM MgCl2, 1 mM DTT, 0.1% Tween-20, 0.2 mg/ml BSA; 25 C; 10 min per concentration, then washed
- condition.description: tags: His6-TwinStrep-SUMO cleaved; N-terminal SNAP kept (SNAP-Surface 488); label: 3' end held by stalled T7 RNA polymerase
Response body: numeric value in nM, unit text excluded.

Q: Look up Kd: target 1 insA 3' of 19,insC 3' of 10 (mixed) RNA 1: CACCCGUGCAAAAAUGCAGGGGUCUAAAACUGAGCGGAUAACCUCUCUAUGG RNA 2: GGGAAUGGAUCCACAUCUACGAAUUCGUACCAUAAGAGAGGUUCAUCCGCUCACCGAGAUCGGAAGAGCACACGU
A: 40

Q: What would you report for target 3 A18U,U22A (mixed) RNA 1: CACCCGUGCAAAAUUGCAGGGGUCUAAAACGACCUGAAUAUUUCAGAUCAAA RNA 2: GGGAAUGGAUCCACAUCUACGAAUUCGUUAUUGUUCUGAAAUAUUCAGGUCUGCAGAUCGGAAGAGCACACGU ?
A: 97.5

Q: Also, target 1 MT 5'PFS AAA 3'PFS AAG (mixed) RNA 1: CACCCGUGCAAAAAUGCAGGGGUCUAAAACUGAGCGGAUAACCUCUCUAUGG RNA 2: GGGAAUGGAUCCACAUCUACGAAUUCAAACCAUAGAGAGGUUAUCCGCUCAAAGAGAUCGGAAGAGCACACGU please.
A: 25.5

Q: Then this binder: target 1 U3C,C7A (mixed) RNA 1: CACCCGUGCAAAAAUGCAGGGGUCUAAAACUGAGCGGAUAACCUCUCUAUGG RNA 2: GGGAAUGGAUCCACAUCUACGAAUUCGUACCAUAGAGAGGUUAUACGCCCACCGAGAUCGGAAGAGCACACGU
A: 8
